self-aminoacylation values by entry
test system: biotinyl-Ile-oxazolone; assay: self-aminoacylation, catalytic enhancement (BIO) (fold over background); higher = more active; k-Seq, kA / k0A0; sequences stand for … in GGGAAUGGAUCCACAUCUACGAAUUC…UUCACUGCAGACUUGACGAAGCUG
Fewer inactive variants are shown than the library holds.
Write the value as a bare number.

AUUCAACUAGGUCAUAGGGUG [Fam2.2 aminoacylation ribozyme variant]; 1.49
AUUACCCAGCUCAUCGAGUGA [Fam2.1 aminoacylation ribozyme variant]; 1.47
AUUCACCACGGUCAUCGGGUG [Fam2.2 aminoacylation ribozyme variant]; 5.71
CCACACUUCAAGGAAUCGGUG [Fam1B.1 aminoacylation ribozyme variant]; 4.9

Entry AUUACCCAGGUCACCGAGUGA [Fam2.1 aminoacylation ribozyme variant] , self-aminoacylation reported as 4.17
